molecular target: hSTING (Homo sapiens, UniProt Q86WV6, G230A/H232R/R293Q/R71H); construct: host or cells: THP1-Dual KO-IFNAR2 cells; assay: STING reporter assay in THP1-Dual KO-IFNAR2 cells (2'3'cGAMP stimulation, luciferase reporter); format: cell-based; conditions: 15 μM 2'3'cGAMP, 24 h, class symbols
Sequence (Q86WV6 whole entry R71H/G230A/H232R/R293Q): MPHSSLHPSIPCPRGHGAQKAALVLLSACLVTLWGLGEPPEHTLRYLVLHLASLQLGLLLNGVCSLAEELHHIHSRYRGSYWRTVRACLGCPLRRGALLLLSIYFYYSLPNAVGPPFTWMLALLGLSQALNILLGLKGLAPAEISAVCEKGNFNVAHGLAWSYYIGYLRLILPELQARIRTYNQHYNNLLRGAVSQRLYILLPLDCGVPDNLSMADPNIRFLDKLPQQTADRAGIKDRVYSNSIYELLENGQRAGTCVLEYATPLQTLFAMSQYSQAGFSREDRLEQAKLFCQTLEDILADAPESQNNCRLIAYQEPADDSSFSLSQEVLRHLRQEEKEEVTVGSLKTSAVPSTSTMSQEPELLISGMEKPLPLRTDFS
Please respond with reported EC50 for every item in the list.

IN: // returns reported EC50 for input "N#Cc1cc(Nc2ccc(C(F)(F)F)nc2)cc(Nc2cc(Cl)c3cc[nH]c3c2)n1"
OUT: 200 to 1000 nM

IN: Bench note: what EC50 did "N#Cc1cc(N2CCOCC2)cc(Nc2cc(Cl)c3cc[nH]c3c2)n1" show?
OUT: 1000 to 5000 nM

IN: So what's the measured EC50 for this one? "N#Cc1cc(Nc2cncc(Cl)c2)cc(Nc2ccc3cc[nH]c3c2)n1"
OUT: 1000 to 5000 nM

IN: What value of measured EC50 is listed for "CC(C)CN1CCN(c2cc(C#N)nc(Nc3cc(Cl)c4cc[nH]c4c3)c2)CC1" ?
OUT: 1000 to 5000 nM

IN: Give the measured EC50 of "N#Cc1cc(Nc2ccc(OCC(F)(F)F)nc2)cc(Nc2ccc3cc[nH]c3c2)n1" .
OUT: 200 to 1000 nM

IN: Query: EC50; subject: "Cc1nc2cc(Nc3cc(C#N)nc(Nc4ccc5cc[nH]c5c4)c3)ccc2s1"
OUT: 1000 to 5000 nM

IN: Which EC50 is reported for this compound? "N#Cc1cc(Nc2cc(F)cc(F)c2)cc(Nc2cc(Cl)c3cc[nH]c3c2)n1"
OUT: 40 to 200 nM

IN: Any idea what its EC50 is? The compound is "N#Cc1cc(Nc2ccc3c(c2)CC(=O)N3)cc(Nc2ccc3cc[nH]c3c2)n1"
OUT: 5000 to 100000 nM

IN: So what does the record say about EC50 for "N#Cc1cc(Nc2ccc3c(c2)OC(F)(F)C(F)(F)O3)cc(Nc2cc(Cl)c3cc[nH]c3c2)n1" ?
OUT: 40 to 200 nM

IN: EC50 lookup needed for "COc1cc(Nc2cc(C#N)nc(Nc3cc(Cl)c4cc[nH]c4c3)c2)cnc1Cl" , thanks.
OUT: 200 to 1000 nM

IN: For "COC1CCN(c2cc(C#N)nc(Nc3cc(Cl)c4cc[nH]c4c3)c2)CC1" , what is its reported EC50?
OUT: 1000 to 5000 nM

IN: For the compound shown here, "N#Cc1cc(N2CCC(Cc3ccccc3)CC2)cc(Nc2cc(Cl)c3cc[nH]c3c2)n1" , give the reported EC50.
OUT: 200 to 1000 nM

IN: Need EC50 of "N#Cc1cc(N2CCC(C(F)(F)F)CC2)cc(Nc2cc(Cl)c3cc[nH]c3c2)n1" , thanks.
OUT: 200 to 1000 nM

IN: Which EC50 is reported for this compound? "N#Cc1cc(Nc2cncc(C(F)(F)F)c2)cc(Nc2ccc3cc[nH]c3c2)n1"
OUT: 200 to 1000 nM

IN: I have this compound here, "N#Cc1cc(N2CCC(C(F)(F)F)CC2)cc(Nc2ccc3cc[nH]c3c2)n1" , and I need its recorded EC50.
OUT: 1000 to 5000 nM

IN: Recorded EC50 of "Cc1ccc(Nc2cc(C#N)nc(Nc3cc(Cl)c4cc[nH]c4c3)c2)cn1" , please.
OUT: 200 to 1000 nM

IN: What EC50 value was documented for this compound, "N#Cc1cc(N2CCC(Oc3ccccc3)CC2)cc(Nc2cc(Cl)c3cc[nH]c3c2)n1" ?
OUT: 200 to 1000 nM

IN: Item under review: "N#Cc1cc(Nc2ccc3c(c2)CC(=O)N3)cc(Nc2cc(Cl)c3cc[nH]c3c2)n1" . Reported EC50?
OUT: 1000 to 5000 nM

IN: Which EC50 value is on record for "Cc1nc2ccc(Nc3cc(C#N)nc(Nc4ccc5cc[nH]c5c4)c3)cc2s1" ?
OUT: 1000 to 5000 nM

IN: EC50 lookup needed for "N#Cc1cc(Nc2cc(F)cc(F)c2)cc(Nc2ccc3cc[nH]c3c2)n1" , thanks.
OUT: 200 to 1000 nM

IN: Which value of EC50 has been reported for "N#Cc1cc(Nc2cncc(F)c2)cc(Nc2cc(Cl)c3cc[nH]c3c2)n1" in the records?
OUT: 200 to 1000 nM

IN: Give its EC50 value. Item: "Cc1nc2ccc(Nc3cc(C#N)nc(Nc4cc(Cl)c5cc[nH]c5c4)c3)cc2s1"
OUT: 200 to 1000 nM

IN: For the compound "N#Cc1cc(Nc2ccc(Cl)c(Cl)c2)cc(Nc2cc(Cl)c3cc[nH]c3c2)n1" , what EC50 is on record?
OUT: 40 to 200 nM

IN: Which EC50 reading was recorded for the compound "N#Cc1cc(Nc2ccc3c(c2)OC(F)(F)O3)cc(Nc2cc(Cl)c3cc[nH]c3c2)n1" ?
OUT: 40 to 200 nM

IN: Using the record for "N#Cc1cc(Nc2ccc(OC(F)(F)F)nc2)cc(Nc2ccc3cc[nH]c3c2)n1" , report its EC50.
OUT: 200 to 1000 nM

IN: Name the reported EC50 value associated with the compound "N#Cc1cc(Nc2ccc3c(c2)C(=O)NC3)cc(Nc2cc(Cl)c3cc[nH]c3c2)n1"
OUT: 1000 to 5000 nM

IN: Looking for the measured EC50 of "N#Cc1cc(Nc2ccc(C(F)(F)F)c(F)c2)cc(Nc2ccc3cc[nH]c3c2)n1" , can you help?
OUT: 200 to 1000 nM

IN: Consider the compound "N#Cc1cc(Nc2ccc(F)c(F)c2)cc(Nc2cc(Cl)c3cc[nH]c3c2)n1" and give its measured EC50.
OUT: 40 to 200 nM
